assay: Inhibition of CCPGCC hexapeptide insertion containing TCPTP-187 mutant
PROPERTY_LABEL: pKi
One number for each entry, as −log10 of the molar value.

-- ask Find the recorded pKi belonging to O=C(O)c1ccccc1-c1c2ccc(=O)c([As]3SCCS3)c-2oc2c([As]3SCCS3)c(O)ccc12 and report it.
-- reply 7.77

====

experiment: Inhibition of CCPGCC hexapeptide insertion containing PTP-PEST-204 mutant
PROPERTY_LABEL: pKi
Answers are plain numbers, as −log10 of the molar value.

-- ask Which pKi value belongs to O=C(O)c1ccccc1-c1c2ccc(=O)c([As]3SCCS3)c-2oc2c([As]3SCCS3)c(O)ccc12 ?
-- reply 7.28

====

experiment: Inhibition of CCPGCC hexapeptide insertion containing PTP1B-186 mutant
PROPERTY_LABEL: pKi
One number for each entry, as −log10 of the molar value.

-- ask Value lookup for pKi; key = O=C(O)c1ccccc1-c1c2ccc(=O)c([As]3SCCS3)c-2oc2c([As]3SCCS3)c(O)ccc12
-- reply 7.34

====

assay: Inhibition of CCPGCC hexapeptide insertion containing PTPH1-816 mutant
PROPERTY_LABEL: pKi
Answers are plain numbers, as −log10 of the molar value.

-- ask Query (compound): O=C(O)c1ccccc1-c1c2ccc(=O)c([As]3SCCS3)c-2oc2c([As]3SCCS3)c(O)ccc12 ; field requested: pKi
-- reply 7.42

====

experiment: Inhibition of CCPGCC hexapeptide insertion containing FAP1-2364 mutant
PROPERTY_LABEL: pKi
Give bare numbers, as −log10 of the molar value.

-- ask Query (compound): O=C(O)c1ccccc1-c1c2ccc(=O)c([As]3SCCS3)c-2oc2c([As]3SCCS3)c(O)ccc12 ; field requested: pKi
-- reply 6.43
